Where do the numbers come from? From patent US10207989B2.

tested on: K562 (chronic myelogenous leukemia; leukemia cell line +ve for Bcr-Abl); assay: Cancer cell assay, tumor cells K562; assay type: cell-based; settings: Homo sapiens, compound in DMSO 0.01 μM to 100 μM, examined 96 hours later, viable cells by trypan blue exclusion
observable: IC50 (µM)

INSERT INTO results (entry_smiles, result_modifier, test_value) VALUES
  ('COc1ccc(CS(=O)(=O)CCc2c(OC)cc(OC)cc2OC)cc1', '=', 0.05),
  ('COc1cc(OC)c(CCS(=O)(=O)Nc2ccc(OC)c(N)c2)c(OC)c1', '=', 0.003),
  ('COc1ccc(CCNS(=O)(=O)c2ccc(OC)c([N+](=O)[O-])c2)cc1', '=', 35),
  ('COc1cc(OC)c(CCS(=O)(=O)Cc2ccc(OC)c(O)c2)c(OC)c1', '=', 0.003),
  ('COc1cc(OC)c(CCNS(=O)(=O)c2ccc(C)cc2)c(OC)c1', '>', 10);

----------
tested on: K562 (chronic myelogenous leukemia; leukemia cell line +ve for Bcr-Abl); test: Cancer cell assay, tumor cells K562; format: cell-based; details: Homo sapiens, K562, 96 h, compound in DMSO 0.01 μM to 100 μM, examined 96 hours later, viable cells by trypan blue exclusion
observable: IC50 (µM)

INSERT INTO measurements (entry_smiles, test_value) VALUES
  ('COc1cc(OC)c(CCS(=O)(=O)Cc2ccc(OC)c(NCC(=O)O)c2)c(OC)c1', 0.04);

----------
test system: K562 (chronic myelogenous leukemia; leukemia cell line +ve for Bcr-Abl); experiment: Cancer cell assay, tumor cells K562; format: cell-based; conditions: Homo sapiens, compound in DMSO 0.01 μM to 100 μM, examined 96 hours later, viable cells by trypan blue exclusion
The label is met for IC50 below 2 µM and not met for IC50 equal to or exceeding 2 µM.

INSERT INTO results (compound, tested_on, class_label) VALUES
  ('COc1cc(OC)c(CCNS(=O)(=O)c2ccc(OC)c([N+](=O)[O-])c2)c(OC)c1 [Example 25]', 'K562 (chronic myelogenous leukemia; leukemia cell line +ve for Bcr-Abl)', 'not met'),
  ('COc1ccc(CCNS(=O)(=O)c2ccc(OC)cc2)cc1 [Example 27]', 'K562 (chronic myelogenous leukemia; leukemia cell line +ve for Bcr-Abl)', 'not met'),
  ('COc1cc(OC)c(CCNC(=O)c2ccc(OC)c(N)c2)c(OC)c1 [Example 35]', 'K562 (chronic myelogenous leukemia; leukemia cell line +ve for Bcr-Abl)', 'met'),
  ('O=C(O)c1ccc(CCS(=O)(=O)Cc2ccc(Cl)cc2)cc1 [Example 6]', 'K562 (chronic myelogenous leukemia; leukemia cell line +ve for Bcr-Abl)', 'not met'),
  ('COc1ccc(C(=O)NCCc2c(OC)cc(OC)cc2OC)cc1 [Example 30]', 'K562 (chronic myelogenous leukemia; leukemia cell line +ve for Bcr-Abl)', 'not met'),
  ('COc1cc(OC)c(CCNC(=O)c2ccc(OC)c([N+](=O)[O-])c2)c(OC)c1 [Example 34]', 'K562 (chronic myelogenous leukemia; leukemia cell line +ve for Bcr-Abl)', 'not met'),
  ('COC(=O)CNc1cc(CS(=O)(=O)CCc2c(OC)cc(OC)cc2OC)ccc1OC [Example 8]', 'K562 (chronic myelogenous leukemia; leukemia cell line +ve for Bcr-Abl)', 'met'),
  ('COc1ccc(CCNS(=O)(=O)c2ccc(C)cc2)cc1 [Example 22]', 'K562 (chronic myelogenous leukemia; leukemia cell line +ve for Bcr-Abl)', 'not met');
